Molecular target: hERG (Kv11.1, KCNH2) (Homo sapiens, UniProt Q12809)
Sequence (Q12809 whole entry): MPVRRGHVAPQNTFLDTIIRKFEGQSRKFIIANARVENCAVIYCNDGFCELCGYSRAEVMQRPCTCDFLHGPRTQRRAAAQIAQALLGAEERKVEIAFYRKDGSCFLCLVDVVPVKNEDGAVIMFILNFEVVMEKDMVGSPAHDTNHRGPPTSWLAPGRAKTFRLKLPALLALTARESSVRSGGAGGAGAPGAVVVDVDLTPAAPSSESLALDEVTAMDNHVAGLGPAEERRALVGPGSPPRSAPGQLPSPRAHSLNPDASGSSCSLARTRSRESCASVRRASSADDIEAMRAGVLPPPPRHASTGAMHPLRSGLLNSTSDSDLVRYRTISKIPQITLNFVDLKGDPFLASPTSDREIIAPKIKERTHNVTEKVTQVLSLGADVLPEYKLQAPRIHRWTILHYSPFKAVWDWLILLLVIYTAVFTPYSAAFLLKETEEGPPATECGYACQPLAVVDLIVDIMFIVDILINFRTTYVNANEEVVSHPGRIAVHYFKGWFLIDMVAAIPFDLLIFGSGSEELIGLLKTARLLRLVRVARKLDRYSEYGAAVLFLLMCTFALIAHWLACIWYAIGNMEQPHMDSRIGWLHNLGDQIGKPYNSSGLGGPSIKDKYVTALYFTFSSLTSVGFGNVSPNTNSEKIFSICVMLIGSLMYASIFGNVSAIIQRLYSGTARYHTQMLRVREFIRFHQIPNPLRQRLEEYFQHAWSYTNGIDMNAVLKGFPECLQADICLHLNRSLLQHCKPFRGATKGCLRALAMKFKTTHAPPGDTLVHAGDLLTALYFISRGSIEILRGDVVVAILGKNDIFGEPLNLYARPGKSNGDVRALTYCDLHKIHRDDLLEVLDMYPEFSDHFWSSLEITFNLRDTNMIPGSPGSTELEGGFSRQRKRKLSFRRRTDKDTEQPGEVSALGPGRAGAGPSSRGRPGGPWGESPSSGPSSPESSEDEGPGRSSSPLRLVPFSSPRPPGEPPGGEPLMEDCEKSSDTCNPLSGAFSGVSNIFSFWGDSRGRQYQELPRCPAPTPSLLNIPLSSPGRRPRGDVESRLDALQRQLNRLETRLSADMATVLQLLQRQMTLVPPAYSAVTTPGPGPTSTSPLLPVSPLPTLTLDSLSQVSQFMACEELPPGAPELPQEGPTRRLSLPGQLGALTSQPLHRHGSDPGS
Experiment: in vitro
Description: MMV: Malaria Box compounds were tested for inhibition of the human ether a go-go related gene (hERG), Kv11.1 channel, using IonWorks 384-well patch clamp electrophysiology at 11.1uM (3 independent assay plates up to 12 cells per concentration).
Label criterion met for high-side inhibition at 11.1 µM (at or above 20%) and criterion not met for low-side inhibition at 11.1 µM (below it).

These solved cases illustrate the format of a correct answer.
| Molecule | Test system | Category label |
| --- | --- | --- |
| CN1CCN(c2nc(Nc3ccc(O)cc3)nc3ccccc23)CC1 | hERG (Kv11.1, KCNH2) (Homo sapiens, UniProt Q12809) | criterion met |
| Cc1cc(Nc2ccc3ccccc3c2)n2ncnc2n1 | hERG (Kv11.1, KCNH2) (Homo sapiens, UniProt Q12809) | criterion met |
| O=C(CCc1ccccc1)c1ccccc1OCC(O)CN1CCCCC1 (configuration not stated) | hERG (Kv11.1, KCNH2) (Homo sapiens, UniProt Q12809) | criterion not met |
| CN(C)c1ccc(N2C(N)=NC(N)=NC2(C)C)cc1 | hERG (Kv11.1, KCNH2) (Homo sapiens, UniProt Q12809) | criterion not met |
| COc1ccc(OC)c(C2C3=C(CC(C)(C)CC3=O)N(c3ccc(Cl)c(Cl)c3)C3=C2C(=O)CC(C)(C)C3)c1 | hERG (Kv11.1, KCNH2) (Homo sapiens, UniProt Q12809) | criterion met |
| CCOc1ccc(CCNC(=O)c2cccs2)cc1OCC | hERG (Kv11.1, KCNH2) (Homo sapiens, UniProt Q12809) | criterion not met |
| O=C(Nc1ccc(CN2CCOCC2)cc1)c1ccc(-c2cc(Cl)ccc2Cl)o1 | hERG (Kv11.1, KCNH2) (Homo sapiens, UniProt Q12809) | criterion met |
| OCCNc1nc(Nc2ccc(Cl)c(Cl)c2)nc2ccccc12 | hERG (Kv11.1, KCNH2) (Homo sapiens, UniProt Q12809) | criterion met |

### Prompt API: above_or_equal(metric=inhibition at 11.1 µM, cutoff=20%) for item CC1(c2ccccc2)Nc2ccccc2-c2nc3ccccc3n21 (configuration not stated)
### Response criterion met

### Prompt Determine whether this molecule has inhibition at 11.1 µM no lower than 20%: O=C(Nc1ccc(N2CCN(Cc3ccccc3)CC2)cc1)c1cccs1
### Response criterion met

### Prompt Hello, I need to know if FC(F)(F)c1cccc(Nc2nc(-c3ccccc3)nc3ncccc23)c1 has measured inhibition at 11.1 µM not below 20%. Thanks!
### Response criterion not met

### Prompt Threshold query (inhibition at 11.1 µM >= 20%) on CCOc1ccc(N2C(N)=NC(N)=NC2(C)C)cc1
### Response criterion not met

* * *

Target: UniProt Q12809
Assay: in vitro
Attribute measured: inhibition at 11.1 µM (%)
Report the figure in % without appending any unit label.

Consider the reported inhibition at 11.1 µM for these compounds:
| Compound | inhibition at 11.1 µM / % |
| --- | --- |
| Cc1cc(C)c2nc(N3CCC(C(=O)NCCCN4CCC(N5CCCCC5)CC4)CC3)sc2c1 | 60 |
| COc1ccc(C2NCCc3c2[nH]c2ccccc32)cc1CN1CCN(c2ccc(F)cc2)CC1 (stereo not given) | 113 |
| COc1ccc2c(=O)cc(C(Cl)(Cl)Cl)oc2c1 | 9 |

### Prompt Supply inhibition at 11.1 µM value. Item: CCC(c1ccccc1)c1nn2c(-c3cccs3)nnc2s1 (stereo not given)
### Response 42

### Prompt Tell me its inhibition at 11.1 µM given CCOC(=O)c1cn(CC)c2cc(N3CCCCC3)c(F)cc2c1=O as the entry.
### Response 25

* * *

Molecular target: UniProtKB Q12809
Assay: in vitro
Attribute measured: inhibition at 11.1 µM (%)
I only need the number, in %, no unit after it.

Use these answered entries as a reference point.
| Compound | Numeric result |
| --- | --- |
| O=C(Nc1ccc(-c2nc3ccccc3[nH]2)cc1)c1ccc(Cl)c(Cl)c1 | 45 |
| O=c1nc(C=Cc2ccc(Br)cc2)oc2ccccc12 | 16 |
| CCCc1c(C)nc2ccccc2c1O | 7 |
| COc1ccc(-c2cc3c(nn2)-c2ccccc2C3=O)cc1 | -7 |
| CCN(CC)CCNc1ccnc2cc3ccccc3cc12 | 6 |

### Prompt Please give the documented inhibition at 11.1 µM of COc1ccc(N2CCN(C(CNC(=O)CC(C)(C)C)c3ccc4c(c3)OCO4)CC2)cc1 (stereo unspecified)
### Response 24

### Prompt Fill in inhibition at 11.1 µM for record O=[N+]([O-])c1ccc(C=NNc2nc3ccccc3[nH]2)cc1
### Response 44

### Prompt Annotate the compound COc1ccc(CN2CCCC(C(=O)c3ccc(C(F)(F)F)cc3)C2)c(O)c1 (stereo unspecified) with its measured inhibition at 11.1 µM.
### Response 100

* * *

# inhibition at 11.1 µM listing for each entry below
Molecular target: hERG (Kv11.1, KCNH2) (Homo sapiens)
Assay: in vitro
Report the figure in % without appending any unit label.

### Prompt State inhibition at 11.1 µM (hERG (Kv11.1, KCNH2) (Homo sapiens)) of Cc1cc(NC(=O)C2c3ccccc3C(=O)N(CC(C)C)C2c2cccs2)no1 (stereo unspecified) .
### Response 11

* * *

Molecular target: UniProtKB Q12809
Experiment: in vitro
Description: MMV: Malaria Box compounds were tested for inhibition of the human ether a go-go related gene (hERG), Kv11.1 channel, using IonWorks 384-well patch clamp electrophysiology at 1.1uM (3 independent assay plates up to 12 cells per concentration).
Recorded inhibition at 1.1 µM for the following molecules
Express the result in % but write the number alone.

| Molecule | inhibition at 1.1 µM / % |
| --- | --- |
| O=c1c2c([nH]c3ccccc13)CCCC2 | 4 |
| Nc1ccc(-c2nc3cc(Cc4ccc5[nH]c(-c6ccc(N)cc6)nc5c4)ccc3[nH]2)cc1 | 12 |
| Oc1ccccc1CN1CCC2(CCCN(Cc3ccccc3F)C2)C1 (stereo not given) | 1 |

### Prompt Report measured inhibition at 1.1 µM on UniProtKB Q12809; entry: CCOC(=O)c1cn(CC)c2cc(N3CCCCC3)c(F)cc2c1=O
### Response -4

### Prompt State inhibition at 1.1 µM on UniProtKB Q12809. Entry: COc1cccc(C=Cc2nc(=O)c3ccccc3o2)c1OC
### Response -3

### Prompt GET inhibition at 1.1 µM where system = UniProtKB Q12809 and item = CSc1ccccc1C(=O)Nc1nc(-c2ccccn2)cs1
### Response 15

### Prompt Tell me its inhibition at 1.1 µM on UniProtKB Q12809: O=C(NC1CCCC1)c1ccc(N2CCC(NCc3cccc(C(F)(F)F)c3)CC2)cc1
### Response 76

### Prompt System UniProtKB Q12809. Read-out inhibition at 1.1 µM. Item Cc1ccc(N2C(=O)C3C(C2=O)C2(c4ccccc4)C(=O)C3(c3ccccc3)C(c3ccccc3)=C2c2ccccc2)cc1 (stereo not given) . Report value.
### Response 10

### Prompt Write down measured inhibition at 1.1 µM (UniProtKB Q12809) for this molecule. FC(F)(F)c1cccc(Nc2nc3ccccc3nc2Nc2cccc(C(F)(F)F)c2)c1
### Response -4

### Prompt Recall the reported inhibition at 1.1 µM of Cc1ccc(C2CC(C(F)(F)F)n3nc(C(=O)N4CCN(C(c5ccccc5)c5ccccc5)CC4)cc3N2)cc1 (stereo not given) when tested on UniProtKB Q12809.
### Response 5

* * *

Target: UniProt:Q12809
Assay: in vitro
Attribute measured: inhibition at 1.1 µM (%)
Respond with the bare value in %.

Completed entries (count: 8):
| Compound | Test system | inhibition at 1.1 µM [%] |
| --- | --- | --- |
| COc1ccc(C2NCCc3c2[nH]c2ccccc32)cc1CN1CCN(c2ccc(F)cc2)CC1 (stereo unspecified) | UniProt:Q12809 | 18 |
| CCN1CCCC1CNc1[nH]cnc2c3cc(Cl)ccc3nc1-2 (stereo unspecified) | UniProt:Q12809 | 6 |
| Cc1cc(NC(=O)C2c3ccccc3C(=O)N(CC(C)C)C2c2cccs2)no1 (stereo unspecified) | UniProt:Q12809 | 4 |
| COc1cc(C(=O)ON=C(N)Cc2cccc3ccccc23)cc(OC)c1OC | UniProt:Q12809 | 26 |
| COc1ccc(C2c3ccc4ccccc4c3Oc3ncn(CCCN(C)C)c(=N)c32)cc1 (stereo unspecified) | UniProt:Q12809 | 32 |
| C=C(C)CCC(C)N1CCC(N2CCC(C(=O)NCCc3ccccc3)CC2)CC1 (stereo unspecified) | UniProt:Q12809 | 8 |
| CCCCc1c(CCC)c(=N)c2ccccc2n1C | UniProt:Q12809 | 29 |
| CCc1ccc(Nc2cc(C)nc3nc(C)nn23)cc1 | UniProt:Q12809 | -2 |

### Prompt Assign inhibition at 1.1 µM to the following record: Cc1nc2ccccc2c(O)c1CC=C(Cl)Cl
### Response -1

### Prompt Output inhibition at 1.1 µM of CCC(O)c1ccc(Br)cc1NC(=O)c1cccc(Cl)c1 (stereo unspecified)
### Response 13

### Prompt Give reported inhibition at 1.1 µM value for FC(F)(F)c1ccc(Nc2nnnc3ccccc23)cc1
### Response -4
